These data points were gathered from PubChem BioAssay.

experiment: drug combination growth inhibition, ovarian cancer – cell-based, oncology-focused library, rucaparib conditional, profiling panel (AID 1508598); details: patient-derived ovarian cancer cells, CellTiter-Glo viability, 144 h; at 5 µM; OCI-P5x cells; with rucaparib 20 µM; 100% = cells with rucaparib alone
Calls of active or inactive are those of the source.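 How the source made its calls: active means normalized viability below 100% at a tested concentration; inactive means the rest.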
Write down the outcome that applies. Available outcomes: 1.0 for active, 0.0 for inactive

• Cc1cccc(-c2nn3c(c2-c2ccnc4ccc(C(N)=O)cc24)CCC3)n1 = 0.0
• Cn1cc(CNCC2CCN(c3ncc(C(=O)NO)cn3)CC2)c2ccccc21 = 1.0
• CNC(=O)c1ccc(C)c(-n2c(C)cc(OCc3ccc(F)cc3F)c(Br)c2=O)c1 = 0.0

Exercise: Would you mind telling me which call this test gave CC(C)C[C@H](NC(=O)CNC(=O)c1cc(Cl)ccc1Cl)B1OC(=O)CC(CC(=O)O)(C(=O)O)O1 (some centres undefined) ?
Solution: 1.0
